Ref: patent US20210130452A1

- system.name: T1, human IL-17A (human, UniProt Q16552 24-155, biotinylated with Sulfo-NHS-LC-Biotin in the AlphaScreen assays only)
- T1 construct: also called hIL-17A; recombinant human IL-17A
- assay.notes: AlphaScreen competition, hIL-17A - IL-17RA-Fc;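 also: receptor Fc-fusion plus Acceptor and streptavidin Donor beads incubated with the mixture for 1 h at room temperature before reading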
recorded.metric: pIC50
Here pIC50 is given on a logarithmic scale as minus log10 of the concentration in mol/L.

Below: 5 binders and their reported pIC50.
- 03C07 (VHH, Class 2 Nanobody (anti-IL-17A and IL-17A/F); not shown: c-myc, His6 tag) VHH: EVQLVESGGGLVQAGGSLRLSCAASGFTFDDYAIGWFRQAPGKEREAVSCFSSSDGSIYYADSVKGRFTISSDNAKNTVYLQMNSLKPEDTAVYYCAGGGGSYYYTQLNYCYDMDYWGKGTQVTVSS: 10.08
- 10A04 (VHH, Class 4 Nanobody (cross-reactive: anti-IL-17A, IL-17F and IL-17A/F); not shown: c-myc, His6 tag) VHH: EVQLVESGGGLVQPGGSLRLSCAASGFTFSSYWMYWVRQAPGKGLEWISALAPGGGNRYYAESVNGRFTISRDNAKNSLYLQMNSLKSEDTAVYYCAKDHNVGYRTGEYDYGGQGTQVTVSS: 7.11
- 01D06 (VHH, Class 2 Nanobody (anti-IL-17A and IL-17A/F); not shown: c-myc, His6 tag) VHH: EVQLVESGGGLVQAGGSLRLSCAADGRTFSTYGMTWFRQVPGKEREFVAHIPRSTYSPYYANSVKGRFTIARDDAKSTVYLQMNSLKPEDTAVYYCAVFTGGTYYVPTAYDYWGQGTQVTVSS: 9.21
- 01A01 (VHH, Class 4 Nanobody (cross-reactive: anti-IL-17A, IL-17F and IL-17A/F); not shown: c-myc, His6 tag) VHH: EVQLVESGGGLVQAGGSLRLSCAASGFTFDDYDIGWFRQAPGKEREGVSCFTSSDGRTFYADSVKGRFTVSADNAKNTVYLQMNSLEPEDTAVYFCAAVNTFDESAYAAFACYDVVRWGQGTQVTVSS: 10.29
- 04B10 (VHH, Class 2 Nanobody (anti-IL-17A and IL-17A/F); not shown: c-myc, His6 tag) VHH: EVQLVESGGGLVQAGGSQSLSCVASGTIVNINVMGWYRQAPGKQRELVALITSGGGTTYGDSVKGRFTISIDNAKNTVILQMNSLEAEDTAVYYCAAEIGYYSGGTYFSSEAHWGQGTQVTVSS: 10.17

I would be grateful if you could share the reported pIC50 for 04F09 (VHH, Class 2 Nanobody (anti-IL-17A and IL-17A/F); not shown: c-myc, His6 tag) VHH: EVQLVESGGGLVQPGGSLRLSCAASGRTFSTHAMGWFRQAPGKERDFVAAIRWSDGSSFYADSVKGRFTISRDNAKNAVYLQSNSLKSEDTAVYVCYADVEGPTALHKYWGRGTQVTVSS .
10.00

Reported pIC50, binder 13B03 (VHH, Class 4 Nanobody (cross-reactive: anti-IL-17A, IL-17F and IL-17A/F); also called IL17MS13B03; not shown: c-myc, His6 tag) VHH: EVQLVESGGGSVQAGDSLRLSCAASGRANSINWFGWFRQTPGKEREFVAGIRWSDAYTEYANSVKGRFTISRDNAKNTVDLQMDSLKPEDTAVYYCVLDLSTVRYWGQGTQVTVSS : ____
10.25

Entry under review: 18B05 (VHH, Class 4 Nanobody (cross-reactive: anti-IL-17A, IL-17F and IL-17A/F); not shown: c-myc, His6 tag) VHH: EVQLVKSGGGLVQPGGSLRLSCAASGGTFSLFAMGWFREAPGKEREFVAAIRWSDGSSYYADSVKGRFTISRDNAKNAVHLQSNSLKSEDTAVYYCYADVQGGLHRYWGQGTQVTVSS . Reported pIC50?
9.76
